# Test system: SNB-75 CNS
# assayRemarks: NCI tumour cell line growth inhibition, 48 h; in the data active = GI50 below about 0.43 µM; inactive = the rest
Your reply should match one of these outcome classes. Yes for active, No for inactive

Test call, this compound: CCN(CC)Cc1cc(Nc2ccnc3ccc(OC)cc23)ccc1O No

# fetch the recorded call for CN(C)C/C=C/C(=O)Nc1ccc(C(=O)Nc2cccc(Nc3ncc(Cl)c(-c4c[nH]c5ccccc45)n3)c2)cc1 here Yes

How was Cc1c(Br)c(Br)c2c3c1nc(N1CCNCC1)n3CCC2 classified in this test? No

Hello, I am checking results. What call was entered for COc1cc(C2C=C(C)N=C3SC=C(C)N32)cc(OC)c1OC (stereo not drawn) ? No

Identify the outcome logged in this assay for the compound shown: Cc1ccc(/C=C(/C#N)n2nnc3cccc(F)c32)cc1 Yes

Hi, do you know how COc1cc(C(=O)/C=C/c2cccnc2Nc2ccc(Cl)cc2)cc(OC)c1OC came out in this test? No

Would you mind telling me which call this test gave Fc1ccc(C2CC(c3cccc(Nc4ccncc4)c3)=NN2c2ccccc2)cc1 (stereo not drawn) ? No

# outcome recorded in this test, key = Oc1c(Cl)cc(Cl)c(Cl)c1Cc1c(O)c(Cl)cc(Cl)c1Cl No

---

Please provide measured TGI for the entries that follow.
# Tested on: A549 NSCLC
# assayRemarks: NCI tumour cell line growth inhibition, 48 h

Recall and state the measured TGI for Cc1ccc(NC(=O)CC(=O)N2N=C(N(c3ccccc3)c3ccccc3)CC2c2ccccc2)cc1 (stereo not drawn) . > 100 µM

Find the measured TGI of Cn1c(=O)oc2cc(C(O)CN3CCN(Cc4ccc5c(c4)OCO5)CC3)ccc21 (stereo not drawn) and report it. > 100 µM

Quickly give me recorded TGI for Cc1c(N)c(C#N)c2n(C)c3ncccc3n2c1=O > 100 µM

// Input: O=C(Oc1ccc(C(c2c(O)c3ccccc3oc2=O)c2c(O)c3ccccc3oc2=O)cc1)c1ccc(C(=O)c2ccccc2)cc1 . Output its TGI only. 55.8 µM

Tell me its TGI given CC(=O)c1ccc(NC(=O)C(=O)CC(=O)c2sc(-n3nc(-c4ccccc4)cc3-c3ccccc3)nc2C)cc1 as the entry. > 100 µM

Assign TGI to the following record: C=C(C)C1Cc2c(cc3c(c2O)c(=O)c2ccccc2n3C)O1 (stereo not drawn) 24.9 µM

Specify TGI for COc1ccc(/C=C/c2cc(O)cc(OC3OC(CO)C(O)C(O)C3O)c2)cc1O (stereo not drawn) and stop. > 100 µM

Note down TGI recorded for CN(C)C/C=C/C(=O)Nc1ccc(C(=O)Nc2cccc(Nc3ncc(Cl)c(-c4c[nH]c5ccccc45)n3)c2)cc1 > 100 µM

Give the measured TGI for O=C(O)C1CC[N-]CC1.O=C(O)C1CC[N-]CC1.[NH2-].[NH2-].[Pt+4] > 100 µM

Give the reported TGI for this compound. COC(=O)C1=C(N)C2=C(N)Oc3ccccc3C2CC1=C(C#N)C#N (stereo not drawn) > 100 µM

Answer with the recorded TGI for the compound listed here: CC=C/C=C/[C@@H]1O[C@](O)([C@H](CC)C(=O)NC/C=C/C=C(\C)[C@@H](OC)[C@@H](C)[C@@H]2O[C@H](/C=C/C=C/C=C(\C)C(=O)c3c(O)cc[nH]c3=O)[C@H](O)[C@@H]2O)[C@H](O)[C@H](O)C1(C)C > 100 µM

Please give measured TGI of the following entry: O=C(CCl)N1CCN(c2ccccc2)CC1 43.3 µM

Look up TGI of [N-]=[N+]=NC1(Cc2ccccc2)C(=O)Nc2ccccc2C1=O (stereo not drawn) and report it. > 100 µM

Quick one: give measured TGI for COc1ccc(-c2cc(-c3ccc(Cl)cc3)nc(SCCCC(=O)NO)n2)cc1OC 8.59 µM

Specify measured TGI for CC(=O)CCC[C@@H](C)[C@@H]1O[C@H]([C@@]2(C)CCC(=O)O2)CC2[C@H]1OC(=O)C21CC1 (stereo partly drawn) . > 100 µM

Identify the reported TGI for the following entry. COC(=O)c1ccccc1C1CN=NC12Cc1cc3c(cc1C2=O)CCC3 (stereo not drawn) > 100 µM

// Input: O=C1CC(=O)NC(=NN2C(=O)CSC2c2ccc(Cl)cc2)N1 (stereo not drawn) . Output its TGI only. > 100 µM

Give TGI for CC(C)(C)c1cc(Cc2ccc(S(C)(=O)=O)cc2)c(O)c(C(C)(C)C)c1 24.2 µM

Origin of measurements: PubChem BioAssay (NCI)
